molecular target: T1, recombinant human IL4Rα-his protein (in house made) (human, UniProt P24394 26-232, limits assumed); assay: SPR (Biacore), antibody captured, IL4Rα-his flowed
T1 construct: also called Human IL4Ra-his
reported-endpoint: Kd

INSERT INTO assay_data (binder, reported_endpoint, result_value) VALUES
  ('huC2C1A1A1-V13 (antibody, human IgG4 S228P, kappa, V domains shown, Humanized, human IgG4/kappa) VH: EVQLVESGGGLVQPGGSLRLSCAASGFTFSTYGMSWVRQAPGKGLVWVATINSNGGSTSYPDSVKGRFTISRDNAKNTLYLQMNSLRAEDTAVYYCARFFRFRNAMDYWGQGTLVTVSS VL: DIQMTQSPSSLSASVGDRVTITCRTSENIYSYLAWYQQKPGKAPKLLIYNAKTLAEGVPSRFSGSGSGTDFTLTISSLQPEDFATYYCQHYYGPPTWTFGQGTKVEIKR', 'Kd', '< 83.8 pM'),
  ('huC2C1A1A1-V6 (antibody, human IgG4 S228P, kappa, V domains shown, Humanized, human IgG4/kappa) VH: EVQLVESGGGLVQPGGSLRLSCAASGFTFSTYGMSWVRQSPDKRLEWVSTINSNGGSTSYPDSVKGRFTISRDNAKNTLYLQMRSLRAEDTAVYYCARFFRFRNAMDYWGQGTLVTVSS VL: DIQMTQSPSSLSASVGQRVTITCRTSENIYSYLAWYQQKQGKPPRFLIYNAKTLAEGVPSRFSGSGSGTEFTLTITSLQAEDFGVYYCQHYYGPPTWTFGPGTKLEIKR', 'Kd', '< 26.1 pM'),
  ('huC2C1A1A1-V10 (antibody, human IgG4 S228P, kappa, V domains shown, Humanized, human IgG4/kappa) VH: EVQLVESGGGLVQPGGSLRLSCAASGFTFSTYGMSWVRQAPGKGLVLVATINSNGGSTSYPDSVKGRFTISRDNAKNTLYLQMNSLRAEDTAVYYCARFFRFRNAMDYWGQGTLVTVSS VL: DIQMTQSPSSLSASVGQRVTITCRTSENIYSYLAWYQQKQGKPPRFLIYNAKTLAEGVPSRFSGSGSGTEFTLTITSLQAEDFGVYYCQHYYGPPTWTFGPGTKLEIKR', 'Kd', '< 30.4 pM');
